Test system: Escherichia coli
Test: Antimicrobial activity against Escherichia coli IMP BAS901 assessed as reduction in microbial growth after 24 hrs by CLSI based broth microdilution method
Assay type: functional
Entries and their MIC values follow.

- Smiles Text: "CCCCCCCCCCCCCCCC(=O)NCCC(=O)N[C@@H](CS(=O)(=O)O)C(=O)N(C)[C@@H]1C(=O)N[C@@H](C)C(=O)N[C@H](C(=O)O)Cc2ccc(OS(=O)(=O)O)c(c2)-c2cc1cc(OS(=O)(=O)O)c2O[C@@H]1O[C@@H](C)[C@H](O)[C@@H](O)[C@H]1O"
  MIC: "> 64 µg/mL"
- Smiles Text: "CCCCCCCCCCCCCCCC(=O)N(C)[C@H](CO)C(=O)N[C@H](C)C(=O)NCC(=O)N(C)[C@@H]1C(=O)N[C@@H](C)C(=O)N[C@H](C(=O)O)Cc2ccc(OS(=O)(=O)O)c(c2)-c2cc1cc(OS(=O)(=O)O)c2O[C@@H]1O[C@@H](C)[C@H](O)[C@@H](O)[C@H]1O"
  MIC: "> 64 µg/mL"
- Smiles Text: "CCCCCCCCCCCCCCCC(=O)N(C)[C@H](CO)C(=O)N[C@H](C)C(=O)NCC(=O)N(C)[C@@H]1C(=O)N[C@@H](C)C(=O)N[C@H](C(=O)O)Cc2ccc(O)c(c2)-c2cc1ccc2O"
  MIC: "16 µg/mL"
- Smiles Text: "CCCCCCCCCCCCCCCC(=O)NCCC(=O)N[C@@H](CS(=O)(=O)O)C(=O)N(C)[C@@H]1C(=O)N[C@@H](C)C(=O)N[C@H](C(=O)O)Cc2ccc(O)c(c2)-c2cc1cc(O)c2O[C@@H]1O[C@@H](C)[C@H](O)[C@@H](O)[C@H]1O"
  MIC: "64 µg/mL"
- Smiles Text: "CCCCCCCCCCCCCCCC(=O)NCCC(=O)N[C@@H](CS(=O)(=O)O)C(=O)N(C)[C@@H]1C(=O)N[C@@H](C)C(=O)N[C@H](C(=O)O)Cc2ccc(O)c(c2)-c2cc1ccc2O"
  MIC: "> 64 µg/mL"
- Smiles Text: "CCCCCCCCCCCCCCCC(=O)NCCC(=O)N[C@H](CS(=O)(=O)O)C(=O)N(C)[C@@H]1C(=O)N[C@@H](C)C(=O)N[C@H](C(=O)O)Cc2ccc(OS(=O)(=O)O)c(c2)-c2cc1cc(OS(=O)(=O)O)c2O[C@@H]1O[C@@H](C)[C@H](O)[C@@H](O)[C@H]1O"
  MIC: "> 64 µg/mL"
